# SYSTEM TESTED: WT PTH1R (Homo sapiens, UniProt Q03431)
# Construct: a flag-tag was fused to the N terminal of full-length PTH1R (WT or mutant); expressed in transfected cells; host or cells: HEK293T
# Sequence (Q03431 27-593): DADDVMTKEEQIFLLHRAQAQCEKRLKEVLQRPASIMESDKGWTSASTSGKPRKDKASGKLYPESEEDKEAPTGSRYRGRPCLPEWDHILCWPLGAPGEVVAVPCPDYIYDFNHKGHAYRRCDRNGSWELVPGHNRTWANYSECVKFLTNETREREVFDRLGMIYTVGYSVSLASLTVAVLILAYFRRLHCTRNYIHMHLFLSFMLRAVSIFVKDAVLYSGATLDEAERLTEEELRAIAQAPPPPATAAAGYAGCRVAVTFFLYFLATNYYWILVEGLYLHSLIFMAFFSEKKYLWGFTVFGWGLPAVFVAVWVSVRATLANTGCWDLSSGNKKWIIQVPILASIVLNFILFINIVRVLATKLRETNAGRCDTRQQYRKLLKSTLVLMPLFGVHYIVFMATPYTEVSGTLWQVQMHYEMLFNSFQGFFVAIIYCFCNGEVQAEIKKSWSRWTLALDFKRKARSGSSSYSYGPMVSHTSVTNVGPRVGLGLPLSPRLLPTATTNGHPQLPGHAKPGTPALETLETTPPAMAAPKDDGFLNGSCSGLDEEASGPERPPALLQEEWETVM
# TEST PROTOCOL: cAMP accumulation assay (GloSensor), wild-type PTH1R
# Format: cell-based
# SETUP CONDITIONS: HEK293T cells; half-maximal stimulatory concentration from curve fitting dose-response data
No end group written: not given here.
Recorded pEC50 for the following substances
// pEC50: -log10(molar conc.)

{"columns": ["SUBSTANCE", "pEC50"],
 "data": [
  ["AVAEHQLMHQRAKHIQDARRRAFLHKLIAEIHTAEI [LAPTH(I5H;W14H)]", 9.31],
  ["AVAEHQLMHNRAKWIQDARRRAFLHKLIAEIHTAEI [LAPTH(I5H;Q10N)]", 8.85],
  ["AVAEHQLMHQRAKWLNSMERVEWLRKKLQDVHNF [LAPTH(1-14,I5H)/PTH(15-34)]", 9.19],
  ["SVSEHQLMHNLGKHIQDARRRAFLHKLIAEIHTAEI [LA-PTH (I5H-PTH;NT)]", 8.70]
]}

With WT PTH1R (Homo sapiens, UniProt Q03431) as the test system, SVAEHQLMHQRAKWIQDARRRAFLHKLIAEIHTAEI [LAPTH(I5H;A1S)] showed pEC50 of 8.73
